# test system: HLA-A*68:01
# procedure text: IEDB peptide-MHC binding, purified MHC/competitive/radioactivity; filed as Kd, often an IC50 or EC50 that approximates it; bounds were set here for any values at or beyond the usual limits of such assays
# condition set: source organism: Dengue virus 3 Martinique/1243/1999
Provide the recorded pKd for the entries that follow.
Scale: negative log10 of molar concentration, which is what pKd denotes.

Entry `ITNITTDSR` : pKd on HLA-A*68:01 = 7.58

Lab entry: HLA-A*68:01 assay, sequence `ITVDDDGTMR` , pKd = 7.11

// returns pKd for `MGYWIESQK` with HLA-A*68:01; value = 7.17

These data points were gathered from the Immune Epitope Database (IEDB).
